Reference source for all entries: PubChem BioAssay AID1159580

Assay: chemical genetic growth profiling, strain panel (AID 1159580);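 further: tested at 20 µM; growth read once vehicle control cultures reached saturation at 30 °C; 1 = growth at the plate median or of vehicle wells; lower values mean less growth of the strain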
Details: S. cerevisiae deletion strains, growth OD, locus YDR335W, strain msn5, hits give low values
Screen size: about 5,500 compounds; about 2,000 (36%) were called active. Another 18% or so got no clear call; they are omitted. The list shows a part of the results.
PARAMETER: normalized growth
# answer = number (no unit)

Known normalized growth results, listed for orientation:
NC[C@H](O)c1ccc(O)c(O)c1 ... 0.999
CC1(C)C(=O)C=C[C@@]2(C)C1=C(O)C(=O)[C@]1(C)C2CC[C@@]2(C)[C@H](c3ccoc3)C[C@H]3O[C@]321 (stereo not given in full) ... 0.969
CC(=O)O[C@@H]1C[C@@]2(C)[C@H](c3ccoc3)C[C@H]3O[C@]32[C@]2(C)C(=O)C(O)=C3C(C)(C)C(=O)C=C[C@]3(C)C12 (stereo not given in full) ... 0.969

Next item in the queue.
Specify measured normalized growth for `CNC[C@@H](O)c1ccc(O)c(O)c1` . 1
